system: OVA-specific IgG antibody; assay: OVA-specific IgG antibody titer by ELISA; OVA intradermal plus adjuvant transdermal; assay type: in vivo, BALB/c mice; settings: OVA 10 ug/head intradermal, 25 uL adjuvant transdermal; dosing at 0, 2, 4 W; 5 W data

{"columns": ["molecule", "Antibody titer (×10^4)"],
 "data": [
  ["CCCCCCCCCCCCO", "2.1 ×10^4"],
  ["CCCCCCCCCCC(CO)CCCCCCCC (stereo not shown)", "0.6 ×10^4"],
  ["CCCCCCCC/C=C\\CCCCCCCCO", "2.1 ×10^4"],
  ["CC(C)CCCCCCCCCCCCCCCO", "1.3 ×10^4"]
]}
